Biological target: T1, mfPRLR.mmh (soluble monomeric macaca fascicularis PRLR) (macaca fascicularis)
T1 construct: soluble monomeric construct; also called macaca fascicularis (mf) PRLR.mmh
T1 chain: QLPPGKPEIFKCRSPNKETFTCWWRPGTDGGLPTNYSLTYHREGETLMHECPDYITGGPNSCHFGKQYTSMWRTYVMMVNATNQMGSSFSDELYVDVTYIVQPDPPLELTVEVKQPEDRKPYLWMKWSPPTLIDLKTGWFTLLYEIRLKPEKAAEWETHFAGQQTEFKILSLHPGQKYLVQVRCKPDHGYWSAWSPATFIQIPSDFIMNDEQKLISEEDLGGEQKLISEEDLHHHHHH
Test: SPR, 37C, mAb capture
Description: Measurements were conducted on a T200 Biacore instrument. Kinetic association (kₐ) and dissociation (kd) rate constants were determined by processing and fitting the data to a 1:1 binding model using Scrubber 2.0 curve fitting software. Binding dissociation equilibrium constants (KD) and dissociative half-lives (t_{1/2}) were calculated from the kinetic rate constants as: KD (M)=kd/kₐ; and […].
In this section, each of the binders is paired with its reported T½.
Numeric answer only, unit min assumed.

Consider the following illustrative entries.
Binder: H1H6785P (antibody, human IgG1, V domains shown, human IgG1 Fc (H1H)) VH: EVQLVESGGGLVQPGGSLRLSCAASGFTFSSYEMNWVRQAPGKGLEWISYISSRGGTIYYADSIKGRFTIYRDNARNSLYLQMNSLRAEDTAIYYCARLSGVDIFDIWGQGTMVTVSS VL: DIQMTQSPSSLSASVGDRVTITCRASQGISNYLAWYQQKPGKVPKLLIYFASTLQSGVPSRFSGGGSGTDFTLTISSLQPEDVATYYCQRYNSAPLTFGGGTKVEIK
T½, min: 26
--
Binder: H1H6967N (antibody, human IgG1, V domains shown, also called H2M6967N) VH: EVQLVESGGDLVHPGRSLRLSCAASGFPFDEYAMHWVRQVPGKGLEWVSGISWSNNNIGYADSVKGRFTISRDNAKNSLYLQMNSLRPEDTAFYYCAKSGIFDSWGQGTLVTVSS VL: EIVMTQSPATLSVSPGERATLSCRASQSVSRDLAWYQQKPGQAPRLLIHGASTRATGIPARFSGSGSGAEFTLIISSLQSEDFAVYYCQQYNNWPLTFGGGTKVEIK
T½, min: 7.1
--
Binder: H1H6795P (antibody, human IgG1, V domains shown, human IgG1 Fc (H1H)) VH: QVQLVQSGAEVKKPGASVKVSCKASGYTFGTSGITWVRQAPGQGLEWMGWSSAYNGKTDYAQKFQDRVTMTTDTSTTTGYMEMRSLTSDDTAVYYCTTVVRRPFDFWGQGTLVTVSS VL: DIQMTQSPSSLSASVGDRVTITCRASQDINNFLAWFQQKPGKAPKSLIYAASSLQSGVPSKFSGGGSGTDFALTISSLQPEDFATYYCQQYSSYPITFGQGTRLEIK
T½, min: 2
--
Binder: H1H6792P (antibody, human IgG1, V domains shown, human IgG1 Fc (H1H)) VH: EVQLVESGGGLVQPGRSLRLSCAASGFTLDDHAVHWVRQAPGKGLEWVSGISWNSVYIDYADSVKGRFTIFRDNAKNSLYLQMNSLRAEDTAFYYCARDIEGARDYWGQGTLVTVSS VL: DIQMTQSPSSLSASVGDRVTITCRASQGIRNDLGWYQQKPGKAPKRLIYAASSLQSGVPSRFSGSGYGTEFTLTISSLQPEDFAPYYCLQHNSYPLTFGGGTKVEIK
T½, min: 4

Complete the entry with T½ for H1H6953N (antibody, human IgG1, V domains shown, also called H1M6953N) VH: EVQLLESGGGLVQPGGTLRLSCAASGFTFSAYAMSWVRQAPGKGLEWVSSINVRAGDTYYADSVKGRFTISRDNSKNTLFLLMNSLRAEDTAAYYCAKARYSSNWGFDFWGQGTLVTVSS VL: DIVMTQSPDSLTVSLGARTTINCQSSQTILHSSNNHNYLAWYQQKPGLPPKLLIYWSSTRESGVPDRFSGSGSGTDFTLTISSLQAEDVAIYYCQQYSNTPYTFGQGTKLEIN
4.5
